# reported EC50 (CCK-1R); entries follow
Target: T1, human cholecystokinin-1 receptor (human, UniProt P32238 1-428)
T1 sequence (looked up): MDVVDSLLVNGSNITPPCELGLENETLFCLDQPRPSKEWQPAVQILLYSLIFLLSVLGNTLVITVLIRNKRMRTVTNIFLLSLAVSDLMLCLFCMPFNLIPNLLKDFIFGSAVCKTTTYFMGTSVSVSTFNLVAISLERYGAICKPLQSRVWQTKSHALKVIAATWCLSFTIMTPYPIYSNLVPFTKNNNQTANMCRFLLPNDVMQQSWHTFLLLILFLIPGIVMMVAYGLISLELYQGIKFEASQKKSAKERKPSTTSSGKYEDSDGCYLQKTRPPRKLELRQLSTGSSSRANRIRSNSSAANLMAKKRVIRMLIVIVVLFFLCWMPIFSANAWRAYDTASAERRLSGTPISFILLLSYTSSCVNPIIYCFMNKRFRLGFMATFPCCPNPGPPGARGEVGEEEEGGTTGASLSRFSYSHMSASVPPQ
Assay: cell-based or functional assay
Starred links: 1 amine or outer side, 2 acyl side, 3 side chain; linkers in the order of their positions; H or OH if unused. Non-standard residues stand in square brackets, D forms with d. No end group written: not given here. *: point of attachment. Phe(4-CH2SO3H) = N[C@@H](Cc1ccc(CS(=O)(=O)O)cc1)C(=O)O; sY = N[C@@H](Cc1ccc(OS(=O)(=O)O)cc1)C(=O)O; C18 diacid = O=C(O)CCCCCCCCCCCCCCCCC(=O)*; γGlu = O=C(O)[C@H](CCC(=O)[*:2])N[*:1]; βAsp = O=C(O)[C@H](CC(=O)[*:2])N[*:1]; NMeF = CN[C@@H](Cc1ccccc1)C(=O)O; dNMeD = CN[C@H](CC(=O)O)C(=O)O; Nle = CCCC[C@H](N)C(=O)O; AEEA = NCCOCCOCC(=O)O

| binder | unit.spec | EC50 (CCK-1R) |
| --- | --- | --- |
| {C18 diacid-γGlu-AEEA-AEEA}-[sY][Nle]GW[Nle][dNMeD][NMeF]-NH2 (SMILES CCCC[C@H](NC(=O)[C@H](Cc1ccc(OS(=O)(=O)O)cc1)NC(=O)COCCOCCNC(=O)COCCOCCNC(=O)CC[C@H](NC(=O)CCCCCCCCCCCCCCCCC(=O)O)C(=O)O)C(=O)NCC(=O)N[C@@H](Cc1c[nH]c2ccccc12)C(=O)N[C@@H](CCCC)C(=O)N(C)[C@H](CC(=O)O)C(=O)N(C)[C@@H](Cc1ccccc1)C(N)=O, X = Nle or Nal) | nM | 0.37 |
| {C18 diacid-γGlu-AEEA-AEEA}-D[sY]AGW[Nle][dNMeD][NMeF]-NH2 (SMILES CCCC[C@H](NC(=O)[C@H](Cc1c[nH]c2ccccc12)NC(=O)CNC(=O)[C@H](C)NC(=O)[C@H](Cc1ccc(OS(=O)(=O)O)cc1)NC(=O)[C@H](CC(=O)O)NC(=O)COCCOCCNC(=O)COCCOCCNC(=O)CC[C@H](NC(=O)CCCCCCCCCCCCCCCCC(=O)O)C(=O)O)C(=O)N(C)[C@H](CC(=O)O)C(=O)N(C)[C@@H](Cc1ccccc1)C(N)=O, X = Nle or Nal) | nM | 0.22 |
| D[sY]AGW[Nle][dNMeD][NMeF]-NH2 (N-terminus assumed; SMILES CCCC[C@H](NC(=O)[C@H](Cc1c[nH]c2ccccc12)NC(=O)CNC(=O)[C@H](C)NC(=O)[C@H](Cc1ccc(OS(=O)(=O)O)cc1)NC(=O)[C@@H](N)CC(=O)O)C(=O)N(C)[C@H](CC(=O)O)C(=O)N(C)[C@@H](Cc1ccccc1)C(N)=O, X = Nle or Nal) [Asp-sTyr-Ala-Gly-Trp-Nle-DMeAsp-MePhe-amide] | nM | 0.16 |
| {C18 diacid-γGlu-AEEA-AEEA}-[βAsp][Phe(4-CH2SO3H)][Nle]GW[Nle][dNMeD][NMeF]-NH2 (SMILES CCCC[C@H](NC(=O)[C@H](Cc1ccc(CS(=O)(=O)O)cc1)NC(=O)C[C@H](NC(=O)COCCOCCNC(=O)COCCOCCNC(=O)CC[C@H](NC(=O)CCCCCCCCCCCCCCCCC(=O)O)C(=O)O)C(=O)O)C(=O)NCC(=O)N[C@@H](Cc1c[nH]c2ccccc12)C(=O)N[C@@H](CCCC)C(=O)N(C)[C@H](CC(=O)O)C(=O)N(C)[C@@H](Cc1ccccc1)C(N)=O, X = Nle or Nal) | nM | 0.36 |

Reference for the values: patent US20170008928A1
